target: Voltage-dependent L-type calcium channel (Cavia porcellus); test: Displacement of [3H]nitrendipine from dihydropyridine receptor of guinea pig myocardial membranes
// NB: equality with 500 nM counts as false (0); only Kd strictly below is true (1)

Answered cases to consult:
Decide: Kd of CCCCSc1ccccc1C1N=C(SC)Nc2coc(O)c21 (stereo unspecified) strictly below 500 nM?
false (0)

Decide: Kd of CSC1=NC2c3ccccc3SCCCCCOC(=O)C2C(C)=N1 (stereo unspecified) strictly below 500 nM?
true (1)

Decide: Kd of COC(=O)C1C(C)=NC(SC)=NC1c1cccc([N+](=O)[O-])c1 (stereo unspecified) strictly below 500 nM?
true (1)

Decide: Kd of COC(=O)C1C(C)=NC(SC)=NC1c1cc([N+](=O)[O-])ccc1SC (stereo unspecified) strictly below 500 nM?
false (0)

Decide: Kd of COC(=O)C1C(C)=NC(SC)=NC1c1ccccc1SC (stereo unspecified) strictly below 500 nM?
false (0)

Kindly consider the entry below.
Decide: Kd of CSC1=NC(c2cccc([N+](=O)[O-])c2)C2=C(COC2=O)N1 (stereo unspecified) strictly below 500 nM?
false (0)
